Values compiled from PubChem BioAssay AID1159580.

# assay_protocol: chemical genetic growth profiling, strain panel (AID 1159580);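 also: tested at 20 µM; growth read once vehicle control cultures reached saturation at 30 °C; 1 = growth at the plate median or of vehicle wells; lower values mean less growth of the strain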
# particulars: S. cerevisiae deletion strains, growth OD, locus YJR075W, strain HOC1, hits give low values
In all, about 5,500 compounds went through this assay and about 2,000 (36%) were called active. Not shown: some 18% with an inconclusive outcome. Some of the results follow.
experimental_readout: normalized growth
Provide a numeric answer; units are not to be included.

Here's what some known entries look like.
# molecule, normalized growth
data = [
    ("Clc1ccc2ocnc2c1", 0.999),
    ("CSc1nc(NC(C)C)nc(NC(C)C)n1", 1.02),
    ("COc1cccc2c1CCC1=CC(=O)CC[C@@]12C", 0.973),
    ("NC(=S)CS(=O)(=O)c1ccc(C(F)(F)F)cc1", 1.02),
    ("CC[C@H]1CN2CCC1C[C@@H]2[C@@H](O)c1ccnc2ccc(OC)cc12 (stereo partly drawn)", 1),
]

Request: // lookup normalized growth for "COc1cc([N+](=O)[O-])c(OC)cc1SCC(=O)NNC(=O)c1cc(OC)c(OC)c(OC)c1"
Result: 1.01

Request: // lookup normalized growth for "Cc1nnsc1C(=O)O/N=C1/CCSc2ccc(F)cc21"
Result: 0.994

Request: // lookup normalized growth for "CC(=O)CS(=O)(=O)c1ccc(Cl)cc1"
Result: 0.995

Request: // lookup normalized growth for "C[N+]1(C)C[C@H](O)[C@H](C(=O)[O-])C1"
Result: 0.994

Request: // lookup normalized growth for "CCN(CCS(=O)(=O)c1ccc(C)cc1)S(=O)(=O)c1ccccc1"
Result: 0.995

Request: // lookup normalized growth for CCOC(=O)C1C(=O)C=C(c2cccs2)CC1c1ccc(OC)c(OC)c1Cl (stereo not drawn)
Result: 0.974

###

# assay_protocol: chemical genetic growth profiling, strain panel (AID 1159580);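 also: tested at 20 µM; growth read once vehicle control cultures reached saturation at 30 °C; 1 = growth at the plate median or of vehicle wells; lower values mean less growth of the strain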
# particulars: S. cerevisiae deletion strains, growth OD, locus YAL021C, strain ccr4, hits give low values
Out of some 5,500 compounds screened, about 2,000 (36%) were called active. About 18% were inconclusive and are not listed. This is one part of the list.
experimental_readout: normalized growth
Provide a numeric answer; units are not to be included.

Here's what some known entries look like.
# molecule, normalized growth
measured = [
    ("C=CCSC[C@@H](N)C(=O)O", 0.993),
    ("CCC(=O)O[C@]1(C(=O)CCl)[C@@H](C)CC2C3CCC4=CC(=O)C=C[C@]4(C)[C@@]3(F)[C@@H](O)C[C@@]21C (stereo partly drawn)", 1.02),
]

Request: // lookup normalized growth for CCCCCC(O)C1C(=O)OC(C)C(O)/C=C/C=C/C=C/C=C/C=C(\C)C(O)CC(O)CC(O)CC(O)CC(O)CC(O)CC1O (stereo not drawn)
Result: 1.01

Request: // lookup normalized growth for O=c1c(-c2ccc(O)cc2)coc2c(C3O[C@H](CO)[C@@H](O)[C@H](O)[C@H]3O)c(O)ccc12 (stereo partly drawn)
Result: 1.01

Request: // lookup normalized growth for "COc1ccc(-c2cc(=O)c3c(O)c(OC)c(OC)c(OC)c3o2)cc1OC"
Result: 0.997

Request: // lookup normalized growth for Oc1ccc2c3c1OC1[C@@H](O)CC[C@@]4(O)[C@@H](C2)N(CC2CCC2)CC[C@]314 (stereo partly drawn)
Result: 0.987

Request: // lookup normalized growth for C/C=C/CC(C)C(O)C1C(=O)NC(CC)C(=O)N(C)CC(=O)N(C)C(CC(C)C)C(=O)NC(C(C)C)C(=O)N(C)C(CC(C)C)C(=O)NC(C)C(=O)NC(C)C(=O)N(C)C(CC(C)C)C(=O)N(C)C(CC(C)C)C(=O)N(C)C(C(C)C)C(=O)N1C (stereo not drawn)
Result: 1.02
